biological target: human ether-à-go-go-related gene (hERG) potassium channel (human, UniProt Q12809); assay: primary screen, population patch clamp on CHO cells stably expressing hERG; higher = less effect of the substance;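 note: peak tail current of the secondary pulse compared with the same well before compound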
Sequence (Q12809 whole entry, looked up): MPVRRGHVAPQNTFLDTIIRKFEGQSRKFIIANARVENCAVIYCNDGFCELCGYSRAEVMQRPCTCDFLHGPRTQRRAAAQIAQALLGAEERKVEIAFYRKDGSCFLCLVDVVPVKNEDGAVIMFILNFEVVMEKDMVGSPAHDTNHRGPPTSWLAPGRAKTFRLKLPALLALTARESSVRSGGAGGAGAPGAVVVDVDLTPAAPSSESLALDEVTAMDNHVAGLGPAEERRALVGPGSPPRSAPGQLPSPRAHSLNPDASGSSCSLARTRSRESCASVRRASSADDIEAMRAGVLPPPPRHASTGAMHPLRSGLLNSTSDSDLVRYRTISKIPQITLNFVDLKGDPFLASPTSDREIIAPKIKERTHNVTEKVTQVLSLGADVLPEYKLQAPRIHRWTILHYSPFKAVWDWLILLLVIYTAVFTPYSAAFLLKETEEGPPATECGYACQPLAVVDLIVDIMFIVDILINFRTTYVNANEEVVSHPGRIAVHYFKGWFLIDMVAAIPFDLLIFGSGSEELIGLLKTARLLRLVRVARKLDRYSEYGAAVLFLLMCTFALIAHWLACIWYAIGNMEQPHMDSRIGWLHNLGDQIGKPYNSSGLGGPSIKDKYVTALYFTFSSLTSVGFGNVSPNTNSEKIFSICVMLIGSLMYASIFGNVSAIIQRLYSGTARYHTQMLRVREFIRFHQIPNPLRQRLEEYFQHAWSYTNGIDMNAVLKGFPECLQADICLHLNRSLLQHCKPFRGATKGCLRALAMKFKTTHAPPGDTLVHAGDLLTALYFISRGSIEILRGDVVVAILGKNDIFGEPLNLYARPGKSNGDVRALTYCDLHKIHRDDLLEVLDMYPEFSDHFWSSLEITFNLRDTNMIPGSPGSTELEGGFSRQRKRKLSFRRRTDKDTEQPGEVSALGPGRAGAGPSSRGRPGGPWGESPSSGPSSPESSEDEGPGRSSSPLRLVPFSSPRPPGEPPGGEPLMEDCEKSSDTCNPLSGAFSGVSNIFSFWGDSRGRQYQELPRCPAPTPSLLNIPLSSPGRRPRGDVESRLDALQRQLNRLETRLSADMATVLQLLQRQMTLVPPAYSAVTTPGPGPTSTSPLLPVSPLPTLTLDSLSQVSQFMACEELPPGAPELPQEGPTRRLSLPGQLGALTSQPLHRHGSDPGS
Hit rate of the full screen: of about 310,000 compounds, about 14,000 (4.5%) showed an effect of 50% or more. Effects have a minus sign here. For the sample, strong results were picked, then their nearest neighbours and some compounds at random.
For each of the compounds below, state its hERG current change (%, negative = inhibition) at 10uM.
Give the quantity in %, number only.

Read the entry CCn1c(SCC(=O)Nc2ccc(C(C)=O)cc2)nc2nc3c(cc2c1=O)COC(C)(C)C3 and write its reported hERG current change (%, negative = inhibition) at 10uM.
13.8

Read the entry CCn1c(SCC(=O)Nc2ccccc2)nc2nc3c(cc2c1=O)COC(C)(C)C3 and write its reported hERG current change (%, negative = inhibition) at 10uM.
-61.8

Read the entry Cc1ccc(SCCN2CCN(CCc3ccccc3)CCC2=O)cc1 and write its reported hERG current change (%, negative = inhibition) at 10uM.
-69.6

Read the entry CCN(CC(=O)Nc1c(F)cccc1F)C(=O)c1cc(C)nc2ccccc12 and write its reported hERG current change (%, negative = inhibition) at 10uM.
9.3

Read the entry COC(=O)CSc1nnc(C)c(=O)[nH]1 and write its reported hERG current change (%, negative = inhibition) at 10uM.
2

Read the entry COc1cccc(NC(=S)NNC(=O)CCn2cc([N+](=O)[O-])cn2)c1 and write its reported hERG current change (%, negative = inhibition) at 10uM.
-2.61

Read the entry Nc1cc(C(=O)O)c(Oc2ccc(Cl)cc2Cl)cc1C(=O)O and write its reported hERG current change (%, negative = inhibition) at 10uM.
7.83

Read the entry C[C@H]1CCC(=O)N(CCSc2ccc(Br)cc2)CC1 and write its reported hERG current change (%, negative = inhibition) at 10uM.
-23.8

Read the entry CCN(CCNCC(O)COCc1ccc(Cl)cc1)c1cccc(C)c1.O=C(O)C(=O)O (centres unmarked) and write its reported hERG current change (%, negative = inhibition) at 10uM.
-18.2

Read the entry CCn1c(SCC(=O)Nc2ccc(C)cc2)nc2nc3c(cc2c1=O)COC(C)(C)C3 and write its reported hERG current change (%, negative = inhibition) at 10uM.
-81.8

Read the entry O=C1CCN(CCc2ccccc2)CCN1CCOc1ccccc1 and write its reported hERG current change (%, negative = inhibition) at 10uM.
-72.8

Read the entry CCn1cc(CN2CCCC(C(=O)Nc3ccc(-c4nc5ccccc5[nH]4)cc3)C2)c(C)n1 (centres unmarked) and write its reported hERG current change (%, negative = inhibition) at 10uM.
-21

Read the entry C=CCn1c(SCC(N)=O)nc2nc3c(cc2c1=O)COC(C)(C)C3 and write its reported hERG current change (%, negative = inhibition) at 10uM.
4.77

Read the entry CCOc1ccc(NC(=O)CSc2nc3nc4c(cc3c(=O)n2CC)COC(C)(C)C4)cc1 and write its reported hERG current change (%, negative = inhibition) at 10uM.
0.831

Read the entry O=C1CCN(Cc2ccccc2)CCN1CCOc1ccccc1 and write its reported hERG current change (%, negative = inhibition) at 10uM.
-10.4

Read the entry CCCN(CC(=O)Nc1ccccc1C)C(=O)CSc1ccccc1C and write its reported hERG current change (%, negative = inhibition) at 10uM.
7.42

Read the entry CCn1cc(CN2CCC(C(=O)Nc3ccc(Oc4cccnc4)cc3)CC2)c(C)n1 and write its reported hERG current change (%, negative = inhibition) at 10uM.
-18.4

Read the entry N#Cc1ccc(Cn2ccnc2C(=O)Nc2ccccc2)cc1 and write its reported hERG current change (%, negative = inhibition) at 10uM.
-87

Read the entry Cc1ccc(S(=O)(=O)NNC(=O)C2CCN(Cc3ccccc3)CC2)cc1 and write its reported hERG current change (%, negative = inhibition) at 10uM.
-15.4

Read the entry CN1CCC(=O)N(CCSc2ccccc2)CC1 and write its reported hERG current change (%, negative = inhibition) at 10uM.
-3.36

Read the entry CCCN(CC(=O)Nc1ccccc1C)C(=O)Cc1c(C)nc2ccccc2c1C and write its reported hERG current change (%, negative = inhibition) at 10uM.
-77.4

Read the entry CCn1c(SCC(=O)Nc2ccc(OC)cc2)nc2nc3c(cc2c1=O)CCCC3 and write its reported hERG current change (%, negative = inhibition) at 10uM.
-62.6

Read the entry O=c1cc(N2CCOCC2)c2ccccc2o1 and write its reported hERG current change (%, negative = inhibition) at 10uM.
-13.9
